- experimentalProtocol: Single ascending dose study in pre- and post-menopausal women, pharmacokinetics
- Assay type: in vivo, human
- condition: female, human, in vivo, 0.1 mg, Cmax Mean
- Excerpt: The drug concentration in plasma and/or serum samples can be determined by a number of different ways, e.g. HPLC or LC-MS/MS analyses. […] A minimal toxic dose (MTD) was not reached. […] Table 3 presents the PK parameters based on preliminary analysis of the concentration-time profile obtained from this study.

structureSmilesString	Cmax [ng/mL]
N#Cc1ccc(C(F)(c2ccc(C#N)cc2)n2cncn2)cc1	1.8

====

- experimentalProtocol: Human ADME study, single oral dose of 1 mg 14C-CGP47645 in healthy postmenopausal women
- Assay type: in vivo
- condition: female, human, abdominal adipose tissue, oral, 1 mg; postmenopausal women; read-out: accumulation in fat tissue in comparison to exposure in plasma
recordedEndpoint: Kp

structureSmilesString	measured
N#Cc1ccc(C(F)(c2ccc(C#N)cc2)n2cncn2)cc1	1 to 3
